The measured values listed here are drawn from PubChem BioAssay (NCI).

- System: HS 578T breast
- ASSAY NAME: NCI tumour cell line growth inhibition, 48 h
ATTRIBUTE MEASURED: TGI (µM)
Give just the numeric value; µM need not be written.

INSERT INTO assay_data (smiles_record, tested_system, attribute_measured, value_reported) VALUES
  ('O=C(Nc1ccc(Cl)cc1Cl)c1ccc(NC2=C(Cl)C(=O)N(Cc3ccccc3)C2=O)cc1', 'HS 578T breast', 'TGI', 47),
  ('COc1ccc(C#Cc2ccccc2C#CCCCCO)cc1', 'HS 578T breast', 'TGI', 65.1),
  ('CCOC(=O)c1cccc(NC(=O)CCl)c1', 'HS 578T breast', 'TGI', 11),
  ('COc1cc(C(=O)OCCCCCCCCCCC[P+](c2ccccc2)(c2ccccc2)c2ccccc2)ccc1O', 'HS 578T breast', 'TGI', 5.25);

Quick one: give measured TGI for `Cc1c2cc[nH]c(=O)c2c(C)c2c1[nH]c1cc(OCCN3CCN(C)CC3)ccc12`
9.23

---

- Tested on: MDA-MB-231 breast
- ASSAY NAME: NCI tumour cell line growth inhibition, 48 h
ATTRIBUTE MEASURED: TGI

INSERT INTO results (compound, value_reported) VALUES
  ('COc1cccc2c1C(=O)c1c(O)c3c(c(O)c1C2=O)CC(O)(C(C)=O)CC3OC1CC(N)C(O)C(C)O1 (stereo not drawn)', '0.59 µg/mL');

Quick one: give measured TGI for Nc1nc(N)c2ncn(CC3CCC(CO)C3)c2n1 (stereo not drawn)
> 100 µM

Quick one: give measured TGI for `O=C(Nc1ccc(Cl)cc1Cl)c1ccc(NC2=C(Cl)C(=O)N(Cc3ccccc3)C2=O)cc1`
31.2 µM

---

- Test system: UACC-257 melanoma
- ASSAY NAME: NCI tumour cell line growth inhibition, 48 h; in the data active = GI50 below about 0.43 µM; inactive = the rest
Your reply should match one of these outcome classes. t for active, f for inactive

INSERT INTO results (compound, assigned_category) VALUES
  ('COc1ccc2c(c1)C(=O)c1c-2n(CCCN)c(=O)c2ccccc12', 't'),
  ('Cc1cc(C)nc(NC(N)=NCCc2ccccc2)n1', 'f');

Kindly review the next compound as well.
What outcome does the record of this test show for `C=CC(=O)Nc1ccc(Nc2nccc(-c3ccc(N4CCCC4)c(C#N)c3)n2)cc1` ?
f

---

Measured GI50 accompanies every entry in the list below.
- Test system: NCI-H522 lung
- ASSAY NAME: NCI tumour cell line growth inhibition, 48 h

Take a look at these entries with their results.
INSERT INTO results (compound, tested_system, value_reported) VALUES
  ('CN(C)CCCOc1ccccc1NC1=C(Cl)C(=O)C(Nc2ccccc2OCCCN(C)C)=C(Cl)C1=O', 'NCI-H522 lung', '170 nM'),
  ('COc1cc2c(cc1OCCCN1CCN(CCCOc3cc4c(cc3OC)C(=O)N3CCC[C@H]3C=N4)CC1)C=CC(C)(C)O2', 'NCI-H522 lung', '1480 nM'),
  ('C=C(Cn1c(=O)c2ccccc2c2ccccc21)c1ccc(C(=O)Nc2ccccc2N)cc1', 'NCI-H522 lung', '4550 nM'),
  ('C=CC(=O)Nc1ccc(Nc2nccc(-c3ccc(N4CCCC4)c(C#N)c3)n2)cc1', 'NCI-H522 lung', '9970 nM'),
  ('O=C(c1ccccc1)c1c(NCC(O)CN2CCCC2)n(Cc2ccccc2)c(=O)n(Cc2ccccc2)c1=O (configuration not stated)', 'NCI-H522 lung', '19800 nM');

Quick one: give measured GI50 for `COC(=O)[C@@H](NC(=O)NC(=O)NC(=O)CI)C(C)C`
1690 nM

Quick one: give measured GI50 for `COc1ccc2c(c1)C(=O)c1c-2n(CCCN)c(=O)c2ccccc12`
12.3 nM
